Test: Rat pharmacokinetics, intravenous injection 1 mg/kg
Type: in vivo, Sprague Dawley rats
Conditions: Sprague Dawley, plasma, IV 1 mg/kg, n=2, mean
measured.property: clearance
Record the result as number plus unit.

I have this compound here, CN(C)C(=O)c1cc2cnc(Nc3ccc(N4CCNCC4)cn3)nc2n1C1CCCC1 [Comparator A, reference compound] , and I need its recorded clearance.
34 mL/min/kg

###

Test: Rat pharmacokinetics, intravenous injection 1 mg/kg
Type: in vivo, Sprague Dawley rats
Details: Sprague Dawley, plasma, IV 1 mg/kg, n=2, mean, read-out: Vdss
measured.property: Vd (L/kg)
Report only the number, with the unit L/kg understood.

Vd lookup needed for CN(C)C(=O)c1cc2cnc(Nc3ccc(N4CCNCC4)cn3)nc2n1C1CCCC1 [Comparator A, reference compound] , thanks.
5.4
